Origin of measurements: patent US5747521A

- method_notes: in vivo
- conditions: mouse, ip, into the abdominal cavity, single dose, fasted mice, mortality up to 72 hours, read-out: LD50 Abdominal administration
measurement_type: LD50 at 72 h
Your answer should be a number followed by the unit of measure.

Can you share its LD50 at 72 h? I mean this molecule: CC1=C(CC(=O)O)c2cc(F)ccc2/C1=C\c1ccc([S+](C)[O-])cc1 (stereo not shown) [Sulindac, reference compound]
235 mg/kg

---

- method_notes: in vivo
- conditions: mouse, oral, single dose, fasted mice, mortality up to 72 hours, read-out: LD50 Oral administration
Field: LD50 at 72 h. Provide a value for each of the compounds that follow.
Your answer should be a number followed by the unit of measure.

# compound, measurement_type, recorded_result
data = [
    ("COc1ccc2c(c1)c(CC(=O)OC(C)C(C)O)c(C)n2C(=O)C=Cc1ccccc1 (stereo not shown)", "LD50 at 72 h", "4200 mg/kg"),
    ("CC1=C(CC(=O)O)c2cc(F)ccc2/C1=C\\c1ccc([S+](C)[O-])cc1 (stereo not shown) [Sulindac, reference compound]", "LD50 at 72 h", "980 mg/kg"),
    ("COc1ccc2c(c1)c(CC(=O)OCC=CCO)c(C)n2C(=O)C=Cc1ccccc1", "LD50 at 72 h", "2000 mg/kg"),
]

Can you share its LD50 at 72 h? I mean this compound: COc1ccc2c(c1)c(CC(=O)OCC1CCCCO1)c(C)n2C(=O)C=Cc1ccccc1 (stereo not shown)
6000 mg/kg

---

- method_notes: in vivo
- Set-up: species or system male SD-rats
- conditions: rat, po
Hi! Just check whether TD50 at 4 h is below 20 mg/kg. Below gives true, equal or above gives false.

TD50 at 4 h strictly < 20 mg/kg for this compound? COc1ccc2c(c1)c(CC(=O)O)c(C)n2C(=O)C=Cc1ccccc1 [Cinmetacin, reference compound]
true

TD50 at 4 h strictly < 20 mg/kg for this compound? COc1ccc2c(c1)c(CC(=O)OC(C)C(C)O)c(C)n2C(=O)C=Cc1ccccc1 (centres unmarked)
false

TD50 at 4 h strictly < 20 mg/kg for this compound? CC1=C(CC(=O)O)c2cc(F)ccc2/C1=C\c1ccc([S+](C)[O-])cc1 (centres unmarked) [Sulindac, reference compound]
true

TD50 at 4 h strictly < 20 mg/kg for this compound? "COc1ccc2c(c1)c(CC(=O)OCC=CCO)c(C)n2C(=O)C=Cc1ccccc1"
false

TD50 at 4 h strictly < 20 mg/kg for this compound? COc1ccc2c(c1)c(CC(=O)OCC1CCCCO1)c(C)n2C(=O)C=Cc1ccccc1 (centres unmarked)
false

---

Field: LD50 at 72 h. Provide a value for each of the molecules that follow.
- method_notes: in vivo
- conditions: mouse, ip, read-out: LD50 Abdominal administration
Answers are plain numbers, in mg/kg.

# molecule, measure_unit, LD50 at 72 h
rows = [
    ("COc1ccc2c(c1)c(CC(=O)OC(C)C(C)O)c(C)n2C(=O)C=Cc1ccccc1 (stereo not drawn)", "mg/kg", 570),
    ("COc1ccc2c(c1)c(CC(=O)OCC=CCO)c(C)n2C(=O)C=Cc1ccccc1", "mg/kg", 520),
]

Now look at this entry.
Can you share its LD50 at 72 h? I mean this molecule: COc1ccc2c(c1)c(CC(=O)OCC1CCCCO1)c(C)n2C(=O)C=Cc1ccccc1 (stereo not drawn)
1150
